Origin of measurements: PubChem BioAssay (NCI)

For each of the compounds below, state its growth.
Test system: NCI-H460 lung
Experiment description: NCI-60 one-dose screen, 48 h (100 = growth as untreated, 0 = no growth, -100 = all killed)
Details: 10 µM unless noted
This is part of a sample that, as a whole, favours compounds with a hit. Of some 83,000 tested, about 20% had one in any assay.
Express your answer in %, writing the number without its unit.

Reported NCI-H460 lung growth for item "CCN(CC)c1ccc(/C=C/C(=O)c2cccc(NS(C)(=O)=O)c2)cc1" was 42.3

Response field growth (NCI-H460 lung) for item "N#Cc1c(-c2ccc(F)cc2)n2c(nc1=O)SC(=O)C2=O" : 101

For the compound CCC(C)C1NC(=O)C(CCNCS(=O)(=O)O)NC(=O)C(NC(=O)C(CCNCS(=O)(=O)O)NC(=O)C(NC(=O)C(CCNCS(=O)(=O)O)NC(=O)CCCCC(C)C)C(C)O)CCNC(=O)C(C(C)O)NC(=O)C(CCNCS(=O)(=O)O)NC(=O)C(CCNCS(=O)(=O)O)NC(=O)C(C(C)CC)NC1=O (stereo not drawn) , the measured growth on NCI-H460 lung was 48.8

* * *

Test system: T-47D breast
Experiment description: NCI-60 one-dose screen, 48 h (100 = growth as untreated, 0 = no growth, -100 = all killed)
Details: 10 µM unless noted
Compounds without any hit were thinned out: in the full panel of roughly 83,000, 20% have a hit. Active and inactive are the calls of the source. How the source made its calls: active means growth percent below 10; inactive means the rest.
Experimental endpoint: growth

Looking up "O=C1/C=C/[C@@H](O)[C@@H]2C[C@@H](O)C[C@H]2/C=C/CCC[C@H](CO)O1" , I found its growth recorded as 32.5% (inactive)

Sure, the documented growth for "O=C1/C(=C/c2ccccc2Cl)CCc2ccccc21" is 105% (inactive)

Query "CCCCc1ccc(C(N)=O)nc1" yields growth of 101% (inactive)

growth measured on "COc1ccc2cc(-c3nc4ccccc4[nH]3)c(=O)oc2c1" = 92.9% (inactive)

The reported growth of the compound "Cc1csc(C#Cc2cncc(O)c2)n1" was 98.3% (inactive)

Notebook: "C(#Cc1ccccc1C#Cc1ccccn1)c1ccc(OCCCCCCOc2ccc(C#Cc3ccccc3C#Cc3ccccn3)cc2)cc1" , growth read as 36.5% (inactive)

* * *

System: LOX IMVI melanoma
Experiment description: NCI-60 one-dose screen, 48 h (100 = growth as untreated, 0 = no growth, -100 = all killed)
Details: 10 µM unless noted
This is part of a sample that, as a whole, favours compounds with a hit. Of some 83,000 tested, about 20% had one in any assay. Calls of active or inactive are those of the source. How the source made its calls: active means growth percent below 10; inactive means the rest.
Experimental endpoint: growth

The molecule "NS(=O)(=O)N(c1cc(C(F)(F)F)cc(C(F)(F)F)c1)C1CCN(Cc2ccc(C(F)(F)F)cc2)CC1" on LOX IMVI melanoma: growth was 23.5% (inactive)

The reported growth value, LOX IMVI melanoma, for "O=C(NCCNC(=O)Oc1cccc2ccccc12)Oc1cccc2ccccc12" reads 81.9% (inactive)

The observed growth for "Cc1nn2c(/C=C3/C(=O)Nc4cc(Cl)ccc43)c(-c3ccccc3)nc2s1" when tested with LOX IMVI melanoma stands at -33.3% (active)

Record "COC(=O)c1cc2oc(/C=N\NC(=O)c3cc4oc(C)c(C)c4[nH]3)cc2[nH]1" ; system LOX IMVI melanoma; growth = 107% (inactive)

The molecule "COC(=O)N/N=C/c1coc2ccc(Cl)cc2c1=O" on LOX IMVI melanoma: growth was 86.7% (inactive)

Let me check: "COc1cccc(/C=N\NC(=O)c2ccncc2)c1O" , system LOX IMVI melanoma, measured growth is 15.2% (inactive)

Tested on LOX IMVI melanoma: "CCCCNCCCN(CCCC)CCCNCCCC" . Observed growth: 104% (inactive)

Sample "C(=C1c2ccccc2-c2ccccc21)c1ccccn1" , system: LOX IMVI melanoma. Its growth is 57.2% (inactive)

I looked up "CNc1nc(NC2CCCC2)nc(Sc2ccc(OC)cc2)n1" and its growth for LOX IMVI melanoma was 22.4% [100 µM] (inactive)

Lab note: molecule "Cc1ncc(C(=O)Nc2ccc(CN3CCN(C)CC3)c(C(F)(F)F)c2)cc1C#Cc1cncc2ncccc12" tested on LOX IMVI melanoma; recorded growth was 10.8% (inactive)

Record "COc1ccc(CNC(=O)c2c(C)n([O-])c3ccccc3[n+]2=O)cc1" ; system LOX IMVI melanoma; growth = 96.8% (inactive)

Hey, LOX IMVI melanoma data for "c1ccc(-c2nc(Nc3nccnn3)c3ccccc3n2)cc1" : growth came out at 96% (inactive)

The molecule "O=C1/C(=C/c2ccc(F)cc2)Cc2ccccc21" , tested on LOX IMVI melanoma, showed growth of 103% (inactive)

Given the molecule "COc1ccc2ncccc2c1Cc1c(OC)ccc2ncccc12" and test system LOX IMVI melanoma, the measured growth is 68.4% (inactive)

// molecule "Cc1sc2nc(NCCc3cccs3)[nH]c(=O)c2c1C" , assay LOX IMVI melanoma, growth value: 88.7% (inactive)

Tested system LOX IMVI melanoma; growth recorded for "Nc1ccc(N=Nc2ccccc2)cc1[N+](=O)[O-]" was 77.9% (inactive)

Item "O=C1/C(=C/c2ccccc2Cl)CCc2ccccc21" ; assay system LOX IMVI melanoma; growth reported as 91.7% (inactive)

Observed growth on LOX IMVI melanoma, entry Nc1ccn(C2O[C@H](CO)[C@@H](O)[C@@H]2O)c(=O)n1 (stereo partly drawn) , equals 19.1% (inactive)

Simply: Clc1ccc(C2=NN(c3ccc(Cl)cc3)C(c3cccc(Nc4ccnc5cc(Cl)ccc45)c3)C2)cc1 (stereo not drawn) , LOX IMVI melanoma, growth = 85.1% (inactive)

LOX IMVI melanoma assay, molecule "COc1cnc2c(c1)C(=O)c1c-2n(CCCN2CCCC2)c(=O)c2cc(F)ccc12" , recorded growth = -69.7% (active)

Bench note, LOX IMVI melanoma: "COc1ccc(CC(=O)Nc2nn3c(-c4cc(C(F)(F)F)cc(C(F)(F)F)c4)nnc3s2)cc1" , growth reads 52.3% (inactive)

Let me check: "N=C1c2nc3n(c2C(=O)c2nc4n(c21)CCCCC4)CCCCC3" , system LOX IMVI melanoma, measured growth is 92% (inactive)

Entry "COc1ccc(OC)c(CCn2cncc2-c2c[nH]c3cc(Br)ccc23)c1" : growth on LOX IMVI melanoma = 37% (inactive)

* * *

System: T-47D breast
Experiment description: NCI-60 one-dose screen, 48 h (100 = growth as untreated, 0 = no growth, -100 = all killed)
Details: 10 µM unless noted
Experimental: Growth inhibition of the T-47D human tumor cell line is measured as a screen for anti-cancer activity. Cells are grown in 96 well plates and exposed to the test compound for 48 hours. Compounds are tested at a single concentration, which is 10^-5 M for most compounds. The reported endpoint is percent growth (GI% or GIPRCNT), where numbers from 0 - 100% represent growth inhibition, and numbers from -100% - 0 represent cell death. For example, a value of 40 represents 60% growth inhibition. […]
This is part of a sample that, as a whole, favours compounds with a hit. Of some 83,000 tested, about 20% had one in any assay. Activity calls are given as the source filed them. Rule for the calls: active = growth percent below 10; inactive = the rest.
Experimental endpoint: growth

GET /value?item= CC1CC=CCC1C1OCC(C)(C)CO1 (stereo not given) &field=growth returns 75.3% (inactive)

The reported growth of the compound "O=C(NC1CCCCC1)c1ccc(Nc2ncnc3c2cnn3-c2ccccc2)cc1" was 76.8% (inactive)

Form: compound = "O=C(/C=C/c1cccc(Nc2ccnc3cc(Cl)ccc23)c1)c1ccc(Cl)cc1" ; growth = 39.8% (inactive)

// "CCOc1cc(/C=C/C(=O)C(C(=O)/C=C/c2ccc(OC(=O)CNc3nc4ccccc4[nH]3)c(OCC)c2)C(=O)CNc2nc3ccccc3[nH]2)ccc1OC(=O)CNc1nc2ccccc2[nH]1" : growth value = 37.3% (inactive)

Noted for "O=C(N/N=C/c1cccc(O)c1O)c1ccccc1" : its growth reads 15.5% (inactive)

What the record says about NS(=O)(=O)c1cc(C2(O)NC(=O)c3ccccc32)ccc1Cl (stereo not given) : growth is 109% (inactive)

Documented growth of COc1cc(NC(C)CCCN)c2nc(C)ccc2c1Oc1ccc(F)cc1 (stereo not given) : 87.4% (inactive)

growth reported for this compound "NS(=O)(=O)c1cc2c(cc1Cl)NC=NS2(=O)=O" : 97.7% (inactive)

The compound "Cc1sc2nc(NCc3ccccc3)[nH]c(=O)c2c1C" showed growth equal to 31.6% (inactive)

Measured growth, "CCOC(=O)C(Br)=P(c1ccccc1)(c1ccccc1)c1ccccc1" : 97.7% (inactive)

* * *

System: TK-10 renal
Experiment description: NCI-60 one-dose screen, 48 h (100 = growth as untreated, 0 = no growth, -100 = all killed)
Details: 10 µM unless noted
About 83,000 compounds went through this panel and 20% of them were active in at least one assay; those are over-represented in the sample as a whole.
Assignment: determine reported growth for the given compounds.
Numbers only; they are read as %.

get_value(item= "Cc1sc2nc(NCc3ccccc3)[nH]c(=O)c2c1C" , readout=growth) returns 67

Per the record, O=C(NC1CCS(=O)(=O)C1)c1ccc(C(=O)c2ccccc2)cc1 (stereo not given) has growth of 137

growth in this record for "N/C(=N\c1nc2ccccc2s1)NC(=O)Nc1ccccc1Cl" : 69.4

Form field growth, entry CS(=O)(=O)N1CCN(Cc2cc3nc(-c4cccc5[nH]ncc45)nc(N4CCOCC4)c3s2)CC1 (tested in a mixture with another compound) : 20.5

For this compound ( "N#Cc1ccc(-c2csc(Nc3ccc4nc5n(c(=O)c4c3)CCC5)n2)cc1" ), measured growth is 110

For "Cc1cc(C)c(C(=O)c2cccs2)c(C)c1" the compound record lists growth as 96.2

Noted for "C=CCNC(=O)/C(=C/c1cccc([N+](=O)[O-])c1)NC(=O)c1ccccc1" : its growth reads 101

// field: growth; key: Nc1nc(NC2CC2)c2ncn(C3C=CC(CO)C3)c2n1 (stereo not given) ; value = 96.4

Recorded result, "Cc1nn2c(/C=C3/C(=O)Nc4cc(Cl)ccc43)c(-c3ccccc3)nc2s1" , growth: -55.3

// "Cc1ccc(-c2c3c(N)c4c(nc3nc3c2c(C)nn3-c2ccccc2)CCC4)cc1" : growth value = 100
